# System: SR leukemia
# Method Summary: NCI-60 one-dose screen, 48 h (100 = growth as untreated, 0 = no growth, -100 = all killed)
# Condition Context: 10 µM unless noted
Compounds without any hit were thinned out: in the full panel of roughly 83,000, 20% have a hit.
Listed below: growth values for each entry.
Please reply with the bare figure in % and do not write the unit itself.

Recorded growth, per entry:
| Compound | growth, % |
| --- | --- |
| COc1ccc(C/C(C)=C(/c2ccc(OCCN3CCCCCC3)cc2)c2ccc(OC(=O)c3ccccc3)cc2)cc1 | 71.3 |
| COC1=CC(=O)C(OC)=C(O)C1=O | 107 |
| CC(=O)N1N=C(c2ccc(Nc3nc(Nc4ccc(F)cc4)nc(Nc4ccc(F)cc4)n3)cc2)CC1c1ccccc1 (stereo not drawn) | 23.3 |
| Clc1ccc2c(c1)N(c1ncnc3ccc(-c4cnc5[nH]ccc5c4)cc13)CC2 | 1.86 |

Q: Form field - read-out: growth; system: SR leukemia; submitted item: O=C(Cc1ccc(F)cc1)c1ccccc1
A: 100

Q: And then Cc1cnc(C(=O)NNc2nc3sc4c(c3c(=O)[nH]2)C(C)CCC4)cn1 (stereo not drawn) , what is it?
A: 21.4

Q: Now consider COC1=CC(c2ccc[nH]2)=N/C1=C\c1[nH]c(C)c(C(=O)Oc2ccccc2)c1C .
A: 6.67

Q: What do you get for CCOC(=O)CCCn1c(-c2ccccc2)cc(-c2ccccc2)c(C#N)c1=O ?
A: 63.7

Q: Continue with O=C(/C=C/C12c3ccccc3C(c3ccccc31)C1C(=O)NC(=O)C12)c1ccncc1 (stereo not drawn)
A: 1.11

Q: And then COc1cc(/C=N/NC(=O)CCN2c3ccccc3Sc3ccccc32)cc(OC)c1OC , what is it?
A: 72

Q: Please answer likewise for CS(=O)(=O)Nc1cc(-c2ccc3ncnc(Nc4ccc(F)c(Cl)c4)c3c2)cnc1Cl
A: 0.546

Q: // repeat for COc1ccc(N2CCN(S(=O)(=O)c3oc(-c4ccccc4)nc3C#N)CC2)cc1 and report
A: 6.1

Q: Similarly, O=C1CCc2c(sc3[nH]c(=S)n(Cc4ccc(Cl)cc4)c(=O)c23)C1 ?
A: 17.9

###

# Tested on: OVCAR-4 ovarian
# Method Summary: NCI-60 one-dose screen, 48 h
# Condition Context: 10 µM unless noted
The panel holds about 83,000 compounds, 20% with a hit somewhere; the sample as a whole holds those more often. The source made the active and inactive calls. The calls were made as follows: active = growth percent below 10; inactive = the rest.
Pick one: yes (1) for active, no (0) for inactive

| Compound | Group |
| --- | --- |
| COC(=O)/C=C1/SC(N2N=C(c3cccs3)CC2c2ccc(F)cc2)=NC1=O (centres undefined) | no (0) |
| CCCCCCNC(=O)Oc1ccc(/C(=C(/CC)Cc2ccccc2)c2ccc(OCCCN(C)C)cc2)cc1 | no (0) |
| C/C(=C(\c1ccc(OCCN2CCOCC2)cc1)c1ccc(OC(=O)C2CCCCC2)cc1)c1ccc(Cl)cc1 | no (0) |
| Cc1nn(-c2nc(-c3cc4ccccc4oc3=O)cs2)c(C)c1N=Nc1ccccc1 | no (0) |
| COc1ccc(-c2nn3c(-c4cc(F)c(Cl)cc4Cl)nnc3s2)cc1 | no (0) |
| CCN(CC)CC#CCOC(=O)[C@]1(C)CCC[C@]2(C)c3ccc(C(C)C)cc3CC[C@@H]12 | no (0) |
| O=C(Oc1ccc(CO[N+](=O)[O-])cc1)c1ccccc1 | yes (1) |
| CCCCCCCCN(CCCCCCCC)CC(O)c1cc(Cl)ccc1OC (centres undefined) | no (0) |

With those in mind, consider the next compound.
Q: Name the outcome recorded for CCCCCCCC/C=C\CCCCCCCCOc1ccccc1CC(=O)NCC[N+]1(C)CCOCC1 in the assay.
A: no (0)
